Target: Prostaglandin G/H synthase 1 (Homo sapiens, UniProt P23219)
Sequence (P23219 whole entry): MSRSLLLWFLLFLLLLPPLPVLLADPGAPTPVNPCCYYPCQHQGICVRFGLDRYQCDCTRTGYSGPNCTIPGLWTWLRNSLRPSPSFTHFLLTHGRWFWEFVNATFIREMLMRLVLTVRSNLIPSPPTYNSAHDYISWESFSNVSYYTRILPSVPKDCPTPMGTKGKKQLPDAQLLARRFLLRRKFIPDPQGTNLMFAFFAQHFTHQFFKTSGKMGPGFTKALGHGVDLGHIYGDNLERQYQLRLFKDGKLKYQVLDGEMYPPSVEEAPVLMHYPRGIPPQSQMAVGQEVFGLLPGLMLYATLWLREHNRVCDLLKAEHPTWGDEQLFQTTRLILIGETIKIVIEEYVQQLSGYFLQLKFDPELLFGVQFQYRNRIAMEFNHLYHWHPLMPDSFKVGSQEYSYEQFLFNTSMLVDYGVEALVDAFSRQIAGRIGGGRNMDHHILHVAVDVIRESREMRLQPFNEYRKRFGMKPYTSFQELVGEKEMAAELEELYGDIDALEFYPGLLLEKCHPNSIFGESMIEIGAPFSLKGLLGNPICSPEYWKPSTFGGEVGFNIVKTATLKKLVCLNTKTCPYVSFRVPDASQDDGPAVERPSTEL
PROPERTY: IC50 (µM)

(A) CC/C=N/c1c(C#N)c2n(c1C(=O)Nc1ccc(C)cc1)CCC2
(B) CC/C=N/c1c(C#N)c2n(c1C(=O)Nc1ccc(Cl)cc1)CCC2
Problem: Please indicate which entry, A or B , has the lower recorded IC50 value. Answer by stating the label of the chosen item.
Solution: B
(B: 15.6 µM, A: 27.7 µM)

---

Tested on: MCF7
Assay: Induction of apoptosis in human MCF7 cells assessed as late apoptotic cells at 1 uM incubated for 24 hrs by annexin V FITC and propidium iodide staining based flow cytometry (reference value: 0 to 2.5 %)
Format: functional
PROPERTY: Activity (%)
All answers are understood in %, so give the number only.

Here are 3 compounds together with their reported answers.
CC(C)C/C=N/c1c(C#N)c2n(c1C(=O)Nc1ccc(Br)cc1)CCC2    10.5
N#Cc1c(/N=C/c2ccc(O)cc2)c(C(=O)Nc2ccc(Br)cc2)n2c1CCC2    9.8
N#Cc1c(/N=C/c2ccco2)c(C(=O)Nc2ccc(Br)cc2)n2c1CCC2    8.8

Now take the following compound into account.
Problem: Provide value of Activity for this record tested with MCF7: CCC1SCC(=O)N1c1c(C#N)c2n(c1C(=O)Nc1ccccc1)CCC2 (centres undefined)
Solution: 7.5
